# Test system: UACC-257 melanoma
# test: NCI tumour cell line growth inhibition, 48 h

molecule	TGI
O=C1c2ccccc2S(=O)(=O)N1CSC(=S)N1CCCCC1	> 100 µM
CCCCC(Sc1cc(Cl)c(C)cc1S(=O)(=O)Nc1n[nH]c(N)n1)C(=O)OC (centres undefined)	> 10 µM
CC1CC[C@@]2(OC1)OC1CC3C4CCC5C[C@@H](OC6OC(CO)C(OC7OC(CO)C(O)C(OC8OC(CO)C(O)C(OC9OC(CO)C(O)C(O)C9O)C8O)C7OC7OC(CO)C(O)C(O)C7O)C(O)C6O)[C@H](O)C[C@]5(C)C4CC[C@]3(C)C1[C@@H]2C (some centres undefined)	> 80.5 µM
CO/N=C(\C(=O)N(C)n1cnnc1)c1csc(NC(c2ccccc2)(c2ccccc2)c2ccccc2)n1	> 10 µM

====

# System: SK-MEL-5 melanoma
# test: NCI tumour cell line growth inhibition, 48 h
Measured TGI of individual entries
propertyName: TGI

> print(dat)
                                   compound  targetortestsystem  propertyname  experimentalvalue
1  Oc1ccc(N=C2CCC(=C(c3ccccc3)c3ccc(Nc4ccc(O)cc4)cc3)CC2)cc1   SK-MEL-5 melanoma           TGI           > 100 µM
2  COc1ccc2c(CN3CCC(C(=O)O)CC3)cc3cc4c(cc3c2c1)OCO4   SK-MEL-5 melanoma           TGI            3.14 µM
3  Cc1cc(O)ccc1C1=NN(c2ccc(S(C)(=O)=O)cc2)C(=O)CC1   SK-MEL-5 melanoma           TGI           > 100 µM
4  CCOC(=O)c1cnc2n(c1=N)[C@H]1CCCC[C@@H]1N2   SK-MEL-5 melanoma           TGI           > 100 µM
5    O=C1C(=O)c2c(nc3ccc(Br)cn23)-c2ccccc21   SK-MEL-5 melanoma           TGI           0.788 µM
6  CC(=O)Nc1cc(N(CCOS(C)(=O)=O)CCOS(C)(=O)=O)ccc1N=O   SK-MEL-5 melanoma           TGI           > 100 µM
7     CCOC(=O)c1c(Cl)nc2ccccc2c1N=[N+]=[N-]   SK-MEL-5 melanoma           TGI           > 100 µM
8  CC(C)(C)C(=O)OCOP(=O)(OCOC(=O)C(C)(C)C)C1CC(O)N(O)C1=O (centres undefined)   SK-MEL-5 melanoma           TGI           > 100 µM
9  Cn1cc(C2=C(c3cn(C)c4c([N+](=O)[O-])cccc34)C(=O)NC2=O)c2ccccc21   SK-MEL-5 melanoma           TGI            > 25 µM

====

# Test system: COLO 205 colon
# test: NCI tumour cell line growth inhibition, 48 h
propertyName: TGI

> print(dat)
                                   molecule  experimentalvalue
1  O=P1(Oc2ccccc2)N(CCCl)CCN1c1ccccc1 (centres undefined)           > 100 µM
2  Clc1cc(Cl)cc(C2ON=C(c3ccccc3)N2C23CC4CC(CC(C4)C2)C3)c1 (centres undefined)            > 10 µM
3  Cc1ccc(S(=O)(=O)N2CCSCCN(S(=O)(=O)c3ccc(C)cc3)CCN(S(=O)(=O)c3ccc(C)cc3)CC2)cc1           > 100 µM
4  Cc1cc2c(cc1C)[n+](=O)c(C(=O)C/C(=N/OCCCc1ccccc1)C(=O)Nc1cc(Cl)ccc1Cl)c(C)n2[O-]           > 100 µM

====

# Tested on: K-562 leukemia
# test: NCI tumour cell line growth inhibition, 48 h
propertyName: TGI

compound	propertyName	experimentalValue
CC(=O)Oc1ccccc1/C=C/C(=O)/C=C/c1ccccc1OC(C)=O	TGI	4.53 µM
Cc1nnc2sc(NN)nn12	TGI	> 100 µM
CCOC(=O)C(C)NC(=O)C(C)NC(=O)C(C)NC(=O)C(C)NC(=O)C(C)NC(=O)OCc1ccccc1 (stereo unspecified)	TGI	> 100 µM
COc1ccc(C(SCC(N)C(=O)O)(c2ccccc2)c2ccccc2)cc1 (stereo unspecified)	TGI	> 45.8 µM
COc1ccc2c(c1)[nH]c(=O)c1c3cc(OC)ccc3cn21	TGI	0.0486 µM
CCOC(=O)c1c(Cl)nc2ccccc2c1N=[N+]=[N-]	TGI	> 100 µM
Cc1ccc(-c2cc3c(SCC(=O)Nc4cc(C(F)(F)F)ccc4Cl)nccn3n2)cc1	TGI	> 100 µM
Nc1cc(N2CCCC2)nc(=O)n1-c1ccccc1	TGI	> 100 µM
CCN(CC)CCOc1ccccc1/C=C/c1noc2ccccc12	TGI	> 100 µM
Cc1oc2c(Cl)cc(O)c(Cl)c2c2cccc1-2	TGI	47.4 µM
O=C(c1ccccc1)c1ccc(Oc2ccc([N+](=O)[O-])cc2[N+](=O)[O-])cc1	TGI	> 100 µM
O=c1oc2ccccc2c(O)c1/C=N/C(=S)NCCc1ccccc1	TGI	> 100 µM
COc1cccc(/C=N/[N-]C(N)=O)c1[O-].[Ni+2].[OH3+].c1ccc(-c2ccccn2)nc1	TGI	> 100 µM
c1ccc(-n2nc3ccc4nonc4c3n2)cc1	TGI	> 100 µM
CC(C)(C)C(=O)OCOP(=O)(OCOC(=O)C(C)(C)C)C1CC(O)N(O)C1=O (stereo unspecified)	TGI	> 100 µM
COc1cc(OC)c2nc(C)c3c(c2c1)NCC3	TGI	27.7 µM
CCOC(=O)c1cnc2n(c1=N)[C@H]1CCCC[C@@H]1N2	TGI	> 100 µM
NC1CCC(Nc2nc(NCc3ccc(-c4cccs4)nc3)c3ncn(C4CCCC4)c3n2)CC1 (stereo unspecified)	TGI	0.777 µM
CC(=O)OC1CCCn2c1nc1c2C(=O)C(C)=C(N2CC2)C1=O (stereo unspecified)	TGI	> 35.2 µM
COC(=O)C(Cc1cc(OC)c(OC)c(OC)c1)c1ccc(OC)cc1 (stereo unspecified)	TGI	> 100 µM
CC1(C)C(O)C[C@@H](O)[C@@]2(C)C1CC[C@]1(C)C2C[C@@H](O)[C@@H]2C([C@@]3(C)CC[C@@H](C(C)(C)O)O3)CCC21C (stereo partly specified)	TGI	> 100 µM
Nc1ccn(C2CCC(CO)O2)c(=S)n1 (stereo unspecified)	TGI	> 100 µM
C=C(C)[C@@H]1CC[C@]2(C(=O)O)CC[C@]3(C)[C@H](CC[C@@H]4[C@@]5(C)C[C@@H](CC#Cc6ccc(C(F)(F)F)cc6)[C@H](O)C(C)(C)[C@@H]5CC[C@]43C)[C@@H]12	TGI	> 100 µM
Nc1nc2c(s1)CCc1c-2c(Br)n(Cc2ccccc2)c1Br	TGI	19.3 µM
C=CC(C1=CC(=O)C(OC)=CC1=O)c1ccccc1 (stereo unspecified)	TGI	13.2 µM
CCCCCCCCCCCCCC1=NCCN1CCO	TGI	> 100 µM

====

# Test system: OVCAR-8 ovarian
# test: NCI tumour cell line growth inhibition, 48 h
// values below are reported TGI
propertyName: TGI

> print(dat)
                                    molecule  experimentalvalue
 1  CCN1C(=O)N(CC)C2Nn3c(s/c(=C\c4ccccc4Br)c3=O)=NC21 (centres undefined)            7.85 µM
 2                      NC(=O)c1ccc(NN=O)nc1           > 100 µM
 3  CC(NC(=O)C(N)CC(=O)O)NC(=O)C1CCC1 (centres undefined)           > 100 µM
 4  Cc1ccc(C(SCC(N)C(=O)O)(c2ccc(C)cc2)c2ccc(C)cc2)cc1 (centres undefined)            17.4 µM
 5       OC1CCOc2ccccc21 (centres undefined)           > 100 µM
 6  CO/N=C(\C(=O)N(C)n1cnnc1)c1csc(NC(c2ccccc2)(c2ccccc2)c2ccccc2)n1            > 10 µM
 7  CCOC(=O)C(C)NC(=O)C(C)NC(=O)C(C)NC(=O)C(C)NC(=O)C(C)NC(=O)OCc1ccccc1 (centres undefined)           > 100 µM
 8               CN(N)c1cc(=O)[nH]c(=O)[nH]1           > 100 µM
 9       N#Cc1c(N)[nH]c(=S)c(C#N)c1-c1ccccc1           > 100 µM
10  Cc1ccc(S(=O)(=O)N2CCSCCN(S(=O)(=O)c3ccc(C)cc3)CCN(S(=O)(=O)c3ccc(C)cc3)CC2)cc1           > 100 µM
11  CCCCC(Sc1cc(Cl)c(C)cc1S(=O)(=O)Nc1n[nH]c(N)n1)C(=O)OC (centres undefined)            > 10 µM
12  NC1CCC(Nc2nc(NCc3ccc(-c4cccs4)nc3)c3ncn(C4CCCC4)c3n2)CC1 (centres undefined)            12.9 µM
13                     COc1cc2cccc(N)c2cc1OC           > 100 µM
14        CNCc1cc(OC)ccc1-c1ccc(OC)c(OC)c1OC           > 100 µM
